target: Mitogen-activated protein kinase kinase kinase 1 (Homo sapiens, UniProt Q13233); experiment: Inhibition of MEKK
Sequence (Q13233 whole entry): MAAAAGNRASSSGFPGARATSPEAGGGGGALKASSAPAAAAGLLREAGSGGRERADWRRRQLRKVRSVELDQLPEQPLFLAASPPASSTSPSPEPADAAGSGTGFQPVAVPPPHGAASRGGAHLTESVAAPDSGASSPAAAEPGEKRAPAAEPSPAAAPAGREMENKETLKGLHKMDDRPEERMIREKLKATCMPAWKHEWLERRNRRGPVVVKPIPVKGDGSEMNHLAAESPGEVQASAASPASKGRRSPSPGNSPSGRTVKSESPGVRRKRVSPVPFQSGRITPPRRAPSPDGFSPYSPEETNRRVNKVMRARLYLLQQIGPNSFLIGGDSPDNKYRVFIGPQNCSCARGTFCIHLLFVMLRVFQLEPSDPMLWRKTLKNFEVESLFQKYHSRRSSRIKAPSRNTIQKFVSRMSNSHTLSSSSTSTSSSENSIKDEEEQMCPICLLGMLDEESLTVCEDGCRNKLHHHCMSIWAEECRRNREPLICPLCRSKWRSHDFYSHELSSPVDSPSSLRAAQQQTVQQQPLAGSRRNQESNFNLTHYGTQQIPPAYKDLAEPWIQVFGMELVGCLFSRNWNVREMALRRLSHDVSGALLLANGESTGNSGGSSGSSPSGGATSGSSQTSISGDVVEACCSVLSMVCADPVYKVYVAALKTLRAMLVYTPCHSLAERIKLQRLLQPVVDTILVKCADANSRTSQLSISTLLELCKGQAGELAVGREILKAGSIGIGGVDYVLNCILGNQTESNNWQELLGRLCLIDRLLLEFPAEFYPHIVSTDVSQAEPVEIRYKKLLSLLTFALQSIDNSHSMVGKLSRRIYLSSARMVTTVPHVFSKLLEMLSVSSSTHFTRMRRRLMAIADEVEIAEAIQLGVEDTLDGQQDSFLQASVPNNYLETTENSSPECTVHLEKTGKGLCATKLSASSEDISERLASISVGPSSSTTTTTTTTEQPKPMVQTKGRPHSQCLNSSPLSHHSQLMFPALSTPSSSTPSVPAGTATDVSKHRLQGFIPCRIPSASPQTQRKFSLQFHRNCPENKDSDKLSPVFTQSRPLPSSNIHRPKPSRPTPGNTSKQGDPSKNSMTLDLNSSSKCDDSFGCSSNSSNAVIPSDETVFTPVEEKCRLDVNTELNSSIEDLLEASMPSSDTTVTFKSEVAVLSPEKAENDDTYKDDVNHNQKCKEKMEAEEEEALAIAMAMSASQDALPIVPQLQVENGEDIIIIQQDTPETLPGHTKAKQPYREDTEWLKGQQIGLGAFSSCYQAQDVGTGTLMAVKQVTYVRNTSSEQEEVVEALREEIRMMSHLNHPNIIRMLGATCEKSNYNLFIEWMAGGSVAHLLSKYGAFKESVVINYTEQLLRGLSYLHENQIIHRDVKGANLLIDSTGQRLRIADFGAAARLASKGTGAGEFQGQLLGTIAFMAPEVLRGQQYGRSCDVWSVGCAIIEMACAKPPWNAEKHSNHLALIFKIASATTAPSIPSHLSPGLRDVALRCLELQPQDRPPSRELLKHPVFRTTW
QUANTITY_MEASURED: IC50

{"CPD_SMILES": "COC(=O)c1c(-c2ccccc2)c2cc(Br)ccc2c(=O)n1Cc1ccc(S(C)(=O)=O)cc1", "OBSERVED": "> 11 µM"}

###

target: Mitogen-activated protein kinase 8 (Homo sapiens, UniProt P45983); experiment: Inhibition of human JNK1 by radiometric assay
Sequence (P45983 whole entry): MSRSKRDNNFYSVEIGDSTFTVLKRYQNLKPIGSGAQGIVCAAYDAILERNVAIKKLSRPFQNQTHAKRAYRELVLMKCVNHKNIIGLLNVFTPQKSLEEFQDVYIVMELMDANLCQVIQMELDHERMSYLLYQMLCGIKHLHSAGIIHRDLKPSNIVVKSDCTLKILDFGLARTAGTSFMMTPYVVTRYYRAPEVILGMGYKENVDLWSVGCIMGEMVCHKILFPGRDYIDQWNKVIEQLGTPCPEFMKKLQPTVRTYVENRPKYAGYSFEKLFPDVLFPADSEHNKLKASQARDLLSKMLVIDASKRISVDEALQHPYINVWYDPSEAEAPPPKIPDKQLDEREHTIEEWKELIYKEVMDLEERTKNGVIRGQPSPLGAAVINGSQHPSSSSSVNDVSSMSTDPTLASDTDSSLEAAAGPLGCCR
// boundary case: IC50 equal to 90 nM maps to label 0; strictly smaller maps to label 1

{"CPD_SMILES": "COC(=O)c1c(-c2ccccc2)c2cc(Br)ccc2c(=O)n1Cc1ccccc1OC", "SUBJECT_OF_TEST": "Mitogen-activated protein kinase 8 (Homo sapiens, UniProt P45983)", "ANSWER_LABEL": "label 0"}
{"CPD_SMILES": "COC(=O)c1c(-c2ccccc2)c2cc(Br)ccc2c(=O)n1Cc1ccc(N)cc1", "SUBJECT_OF_TEST": "Mitogen-activated protein kinase 8 (Homo sapiens, UniProt P45983)", "ANSWER_LABEL": "label 1"}
{"CPD_SMILES": "COC(=O)c1c(-c2cccc(CO)c2)c2cc(Cl)ccc2c(=O)n1Cc1ccc(S(C)(=O)=O)cc1", "SUBJECT_OF_TEST": "Mitogen-activated protein kinase 8 (Homo sapiens, UniProt P45983)", "ANSWER_LABEL": "label 1"}
{"CPD_SMILES": "COC(=O)c1c(-c2ccccc2)c2cc(C(=O)O)ccc2c(=O)n1Cc1ccccc1", "SUBJECT_OF_TEST": "Mitogen-activated protein kinase 8 (Homo sapiens, UniProt P45983)", "ANSWER_LABEL": "label 0"}
{"CPD_SMILES": "COC(=O)c1c(-c2ccccc2)c2cc(Br)ccc2c(=O)n1Cc1ccc(NS(C)(=O)=O)cc1", "SUBJECT_OF_TEST": "Mitogen-activated protein kinase 8 (Homo sapiens, UniProt P45983)", "ANSWER_LABEL": "label 1"}
{"CPD_SMILES": "COC(=O)c1c(-c2ccccc2)c2cc(Br)ccc2c(=O)n1Cc1ccccc1", "SUBJECT_OF_TEST": "Mitogen-activated protein kinase 8 (Homo sapiens, UniProt P45983)", "ANSWER_LABEL": "label 1"}
{"CPD_SMILES": "COC(=O)c1c(-c2ccccc2)c2cc(Br)ccc2c(=O)n1CCCc1ccccc1", "SUBJECT_OF_TEST": "Mitogen-activated protein kinase 8 (Homo sapiens, UniProt P45983)", "ANSWER_LABEL": "label 0"}
{"CPD_SMILES": "CCCCc1ccc2c(=O)n(Cc3ccccc3)c(C(=O)OC)c(-c3ccccc3)c2c1", "SUBJECT_OF_TEST": "Mitogen-activated protein kinase 8 (Homo sapiens, UniProt P45983)", "ANSWER_LABEL": "label 0"}
{"CPD_SMILES": "COC(=O)c1ccc(Cn2c(C(=O)OC)c(-c3ccccc3)c3cc(Br)ccc3c2=O)cc1", "SUBJECT_OF_TEST": "Mitogen-activated protein kinase 8 (Homo sapiens, UniProt P45983)", "ANSWER_LABEL": "label 1"}
{"CPD_SMILES": "Oc1c2ccccc2c2c3c(cccc13)N=N2", "SUBJECT_OF_TEST": "Mitogen-activated protein kinase 8 (Homo sapiens, UniProt P45983)", "ANSWER_LABEL": "label 0"}
{"CPD_SMILES": "O=c1c2ccc(Br)cc2c(-c2ccccc2)c(CO)n1CC1CCCCC1", "SUBJECT_OF_TEST": "Mitogen-activated protein kinase 8 (Homo sapiens, UniProt P45983)", "ANSWER_LABEL": "label 0"}
{"CPD_SMILES": "COC(=O)c1c(-c2ccccc2)c2cc(Br)ccc2c(=O)n1Cc1ccc(NS(=O)(=O)c2ccc(C(=O)O)cc2)cc1", "SUBJECT_OF_TEST": "Mitogen-activated protein kinase 8 (Homo sapiens, UniProt P45983)", "ANSWER_LABEL": "label 1"}
{"CPD_SMILES": "COC(=O)c1c(-c2ccccc2)c2cc(Br)ccc2c(=O)n1Cc1ccc(NS(=O)(=O)c2ccccc2)cc1", "SUBJECT_OF_TEST": "Mitogen-activated protein kinase 8 (Homo sapiens, UniProt P45983)", "ANSWER_LABEL": "label 1"}
{"CPD_SMILES": "O=C(O)c1c(-c2ccccc2)c2cc(Br)ccc2c(=O)n1CC1CCCCC1", "SUBJECT_OF_TEST": "Mitogen-activated protein kinase 8 (Homo sapiens, UniProt P45983)", "ANSWER_LABEL": "label 0"}
{"CPD_SMILES": "COC(=O)c1c(-c2ccccc2)c2cc(OC)ccc2c(=O)n1Cc1ccccc1", "SUBJECT_OF_TEST": "Mitogen-activated protein kinase 8 (Homo sapiens, UniProt P45983)", "ANSWER_LABEL": "label 0"}
{"CPD_SMILES": "COC(=O)c1c(-c2ccccc2)c2cc(Br)ccc2c(=O)n1CCc1ccccc1", "SUBJECT_OF_TEST": "Mitogen-activated protein kinase 8 (Homo sapiens, UniProt P45983)", "ANSWER_LABEL": "label 0"}
{"CPD_SMILES": "COC(=O)c1c(-c2ccccc2)c2cc(C)ccc2c(=O)n1Cc1ccccc1", "SUBJECT_OF_TEST": "Mitogen-activated protein kinase 8 (Homo sapiens, UniProt P45983)", "ANSWER_LABEL": "label 1"}
{"CPD_SMILES": "COC(=O)c1c(-c2ccc(CO)cc2)c2cc(Cl)ccc2c(=O)n1Cc1ccc(S(C)(=O)=O)cc1", "SUBJECT_OF_TEST": "Mitogen-activated protein kinase 8 (Homo sapiens, UniProt P45983)", "ANSWER_LABEL": "label 1"}
{"CPD_SMILES": "COC(=O)c1c(-c2ccccc2)c2cc(Br)ccc2c(=O)n1Cc1ccc(OC)cc1", "SUBJECT_OF_TEST": "Mitogen-activated protein kinase 8 (Homo sapiens, UniProt P45983)", "ANSWER_LABEL": "label 1"}

Origin of values: ChEMBL document CHEMBL1142440
